# Test system: human SMAD7 mRNA
# EXPERIMENTAL_DETAILS: Dose-dependent inhibition of human SMAD7 mRNA expression in Hep3B cells (Example 3, Study 1 and 2)
# Type: cell-based
# CONDITION_SET: 20000.0 nM, electroporation, approximately 16 hours, Study 2
Strand notation (5' to 3'): a small letter for the sugar, then the base; units joined by * are phosphorothioate-linked, units joined directly phosphodiester-linked; [ ] holds rarer units or linkages, { } end groups; capitals alone tell only the bases. k = constrained ethyl (cEt); [5mC] = 5-methylcytosine; d = 2'-deoxy (DNA)
MEASURED_PROPERTY: % inhibition of SMAD7 mRNA expression

Record 830028 (antisense k[5mC]*kA*kG*dT*d[5mC]*dA*dA*dG*dT*dT*dA*d[5mC]*dA*kG*kT*k[5mC]) [compound 830028] , field % inhibition of SMAD7 mRNA expression: 93%

Record 830122 (kG*kA*kG*dA*dA*dT*d[5mC]*dA*dA*dG*d[5mC]*d[5mC]*d[5mC]*kT*kG*kG; antisense) [compound 830122] , field % inhibition of SMAD7 mRNA expression: 74%

Record 799322 (antisense kG*kG*kA*dG*dG*dG*dT*dA*dT*dG*d[5mC]*dA*d[5mC]*kA*k[5mC]*kT) [compound 799322] , field % inhibition of SMAD7 mRNA expression: 96%

Record 772560 (antisense kT*kT*kG*d[5mC]*dA*d[5mC]*dA*dG*d[5mC]*dA*dG*dG*dA*kG*kG*kG) [compound 772560] , field % inhibition of SMAD7 mRNA expression: 82%

Record 799708 (antisense k[5mC]*kA*kA*dA*d[5mC]*dT*dT*dG*dT*dG*dG*dT*dA*kA*kA*kA) [compound 799708] , field % inhibition of SMAD7 mRNA expression: 79%

Record 829942 (kG*k[5mC]*kA*dT*d[5mC]*dT*dG*dG*dA*d[5mC]*dA*dG*dT*k[5mC]*kA*kG; antisense) [compound 829942] , field % inhibition of SMAD7 mRNA expression: 94%

Record 830044 (k[5mC]*kG*kA*dT*dT*dG*dG*d[5mC]*dA*dG*dG*dT*dT*kA*kA*kT; antisense) [compound 830044] , field % inhibition of SMAD7 mRNA expression: 93%

Taken from patent US10517889B2.
